In this section we review reported Crabgrass plant response rating values for a set of compounds.
tested on: crabgrass; experiment: Test B pre/postemergence crabgrass; assay type: in vivo, Digitaria sanguinalis; conditions: Preemergence, Rate 500 g/ha; scale 0 (no effect) to 10 (complete control)
Number only, please.

Please review the following examples before continuing.
>  <structure-notation>
CC(C)N(C(=O)n1oc(=O)n(-c2ccc(Cl)cc2C(F)(F)F)c1=O)c1ccc(F)cc1

>  <tested-on>
crabgrass

>  <Crabgrass plant response rating>
7

$$$$
>  <structure-notation>
Cc1ccccc1-n1c(=O)on(C(=O)N(c2ccccc2)C(C)C)c1=O

>  <tested-on>
crabgrass

>  <Crabgrass plant response rating>
10

$$$$
>  <structure-notation>
Cc1ccccc1-n1c(=O)on(C(=O)N(c2cc(OC(C)C)c(Cl)cc2Cl)C(C)C)c1=O

>  <tested-on>
crabgrass

>  <Crabgrass plant response rating>
0

$$$$

Q: Which Crabgrass plant response rating value belongs to Cc1cccc(C)c1-n1c(=O)on(C(=O)N(Cc2ccccc2)C(C)C)c1=O ?
Ans: 4

Q: Which Crabgrass plant response rating value belongs to CC(C)N(C(=O)n1oc(=O)n(Cc2ccccc2)c1=O)c1ccccc1 ?
Ans: 10

* * *

system: giant foxtail; assay: Test B pre/postemergence giant foxtail; type: in vivo, Setaria faberii; conditions: Postemergence, Rate 125 g/ha; scale of 0 to 10 where 0 is no effect and 10 is complete control
assay-metric: Giant foxtail plant response rating

Please review the following examples before continuing.
>  <compound>
CC(C)N(C(=O)n1oc(=O)n(Cc2nnc(Cl)s2)c1=O)c1ccc(Cl)cc1 [Compound 653]

>  <tested-on>
giant foxtail

>  <Giant foxtail plant response rating>
0

$$$$
>  <compound>
COC1CCC(Cn2c(=O)on(C(=O)N(c3ccc(F)cc3)C(C)C)c2=O)=NO1 (centres unmarked) [Compound 766]

>  <tested-on>
giant foxtail

>  <Giant foxtail plant response rating>
8

$$$$
>  <compound>
CC(C)N(C(=O)n1oc(=O)n(C(C)C)c1=O)c1ccc(F)cc1F [Compound 109]

>  <tested-on>
giant foxtail

>  <Giant foxtail plant response rating>
9

$$$$

Q: Which Giant foxtail plant response rating value belongs to CC(C)N(C(=O)n1oc(=O)n(CCCCl)c1=O)c1ccccc1 [Compound 750] ?
Ans: 8

Q: Which Giant foxtail plant response rating value belongs to CC(C)N(C(=O)n1oc(=O)n(CC(F)F)c1=O)c1ccc(Cl)cc1 [Compound 745] ?
Ans: 2

* * *

tested on: crabgrass; test: Test B pre/postemergence crabgrass; format: in vivo, Digitaria sanguinalis; conditions: Postemergence, Rate 500 g/ha; scale of 0 to 10 where 0 is no effect and 10 is complete control
In this section we review reported Plant response rating, Crabgrass values for a set of compounds.
Number only, please.

Please review the following examples before continuing.
>  <structure-notation>
CCCCCCn1c(=O)on(C(=O)N(c2ccccc2)C(C)C)c1=O

>  <assay-metric>
Plant response rating, Crabgrass

>  <quantitative-readout>
8

$$$$
>  <structure-notation>
CC(C)N(C(=O)n1oc(=O)n(COCc2ccccc2)c1=O)c1ccccc1

>  <assay-metric>
Plant response rating, Crabgrass

>  <quantitative-readout>
8

$$$$
>  <structure-notation>
CC(C)N(C(=O)n1oc(=O)n(CC(=O)C2CCC2)c1=O)c1ccc(F)cc1

>  <assay-metric>
Plant response rating, Crabgrass

>  <quantitative-readout>
6

$$$$

Attention now turns to another entry.
Q: Which Plant response rating, Crabgrass value belongs to CC(C)N(C(=O)n1oc(=O)n(Cc2nnc(Cl)s2)c1=O)c1ccc(F)cc1F ?
Ans: 3
